Target: hKv3.1 (Homo sapiens, UniProt P48547)
Construct: expressed in transfected cells
Sequence (P48547 1-511): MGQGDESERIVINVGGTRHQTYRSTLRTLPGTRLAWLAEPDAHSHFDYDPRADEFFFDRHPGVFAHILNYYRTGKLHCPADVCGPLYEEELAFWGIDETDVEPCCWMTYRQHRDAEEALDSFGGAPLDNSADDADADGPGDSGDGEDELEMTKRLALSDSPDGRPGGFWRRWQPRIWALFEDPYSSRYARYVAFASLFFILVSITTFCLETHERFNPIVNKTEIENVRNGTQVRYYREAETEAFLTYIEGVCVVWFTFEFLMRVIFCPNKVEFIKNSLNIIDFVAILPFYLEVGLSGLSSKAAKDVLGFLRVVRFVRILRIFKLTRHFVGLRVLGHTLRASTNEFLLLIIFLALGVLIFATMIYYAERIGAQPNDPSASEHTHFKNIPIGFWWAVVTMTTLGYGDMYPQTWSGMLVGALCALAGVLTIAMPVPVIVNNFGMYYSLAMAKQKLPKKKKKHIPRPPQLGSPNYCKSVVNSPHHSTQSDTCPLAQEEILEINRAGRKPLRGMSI
Test: Automated patch clamp (Patchliner) whole-cell electrophysiology, Kv3.1
Format: cell-based
Details: 10 μM compound; % potentiation of peak current at −10 mV voltage step vs vehicle; CHO-K1 cells stably expressing hKv3.1
Procedure: hKv3.1, hKv3.2, hKv3.3, and hKv3.4 were stably expressed in CHO-K1 (Chinese hamster ovary) cells and kept under constant antibiotic selection. […] The recordings were analysed and selected using peak current amplitude (>100 pA at the −10 mV voltage step) in the absence of compound to eliminate unsuitable cells from analysis. Peak current amplitude was measured and recorded for each voltage step and data was normalised to the maximum current at +60 mV. […]
measured.metric: Kv3.1 Activity at 10 μM Potentiation (%)
Number in %, nothing else.

Worked cases, Kv3.1 Activity at 10 μM Potentiation (%) given:
compound	unit.symbol	Kv3.1 Activity at 10 μM Potentiation (%)
COc1cc(Oc2cccc(N3C(=O)NC4(CCCCC4)C3=O)n2)ccc1C [Example 75]	%	15
CC[C@H]1NC(=O)N(c2cccc(Oc3cc(C)cc(OC)c3)n2)C1=O [Example 54]	%	11
CC[C@@]1(C)NC(=O)N(c2ccnc(Oc3ccc4c(c3)OCCC4)c2)C1=O [Example 19]	%	35
CC[C@@]1(C)NC(=O)N(c2ccnc(Oc3ccc(C)c(OC)c3)c2)C1=O [Example 10]	%	72
O=C1NC2(CCCCC2)C(=O)N1c1ccnc(Oc2ccc3c(c2)OC(F)(F)O3)c1F [Example 93]	%	142

Q: Give a short answer stating reported Kv3.1 Activity at 10 μM Potentiation (%) for CC[C@@]1(C)NC(=O)N(c2cccc(Oc3ccc(Cl)c(OC)c3)n2)C1=O [Example 62] .
Ans: 57

Q: Give a short answer stating reported Kv3.1 Activity at 10 μM Potentiation (%) for COc1cc(Oc2cc(N3C(=O)NC(C)(C)C3=O)ccn2)ccc1C(F)(F)F [Example 4] .
Ans: 36

Q: Give a short answer stating reported Kv3.1 Activity at 10 μM Potentiation (%) for CC[C@@]1(C)NC(=O)N(c2cc(Oc3ccc(C)c(OC)c3)ccn2)C1=O [Example 45] .
Ans: 19

Q: Give a short answer stating reported Kv3.1 Activity at 10 μM Potentiation (%) for COc1cc(Oc2cc(N3C(=O)NC4(CCN(C)CC4)C3=O)ccn2)ccc1C [Example 30] .
Ans: 26

Q: Give a short answer stating reported Kv3.1 Activity at 10 μM Potentiation (%) for CC[C@]1(C)NC(=O)N(c2cccc(Oc3ccc(C)c(OC)c3)n2)C1=O [Example 72] .
Ans: 33

Q: Give a short answer stating reported Kv3.1 Activity at 10 μM Potentiation (%) for COc1cc(Oc2cc(N3C(=O)NC(C)(C)C3=O)ccn2)ccc1C [Example 1] .
Ans: 53

###

Molecular target: hKv3.1 (Homo sapiens)
Construct: expressed in transfected cells
Assay: Automated patch clamp (Patchliner) whole-cell electrophysiology, Kv3.1
Assay type: cell-based
Settings: 10 μM compound; voltage shift of the IV curve at V1/2; CHO-K1 cells stably expressing hKv3.1
Method: hKv3.1, hKv3.2, hKv3.3, and hKv3.4 were stably expressed in CHO-K1 (Chinese hamster ovary) cells and kept under constant antibiotic selection. […] The recordings were analysed and selected using peak current amplitude (>100 pA at the −10 mV voltage step) in the absence of compound to eliminate unsuitable cells from analysis. Peak current amplitude was measured and recorded for each voltage step and data was normalised to the maximum current at +60 mV. […]
Reported Kv3.1 Activity at 10 μM Voltage Shift (mV) values for the following compounds.
Number in mV, nothing else.

Worked cases, Kv3.1 Activity at 10 μM Voltage Shift (mV) given:
compound	numeric.readout
CC[C@H]1NC(=O)N(c2cc(Oc3ccc4ccccc4c3)ccn2)C1=O [Example 42]	−3.07
CC[C@@]1(C)NC(=O)N(c2cc(Oc3ccc(C)c(OC)c3)ccn2)C1=O [Example 45]	−2.36
COc1cc(Oc2cccc(N3C(=O)NC4(CCCCC4)C3=O)n2)ccc1C [Example 75]	−4.01
CC[C@@]1(C)NC(=O)N(c2ccnc(Oc3ccc4c(c3)OCCC4)c2)C1=O [Example 19]	−0.4
CC1(C)NC(=O)N(c2ccc(F)c(Oc3ccc4c(c3)OC(F)(F)O4)n2)C1=O [Example 84]	−2.27
CC[C@@]1(C)NC(=O)N(c2cccc(Oc3ccc(F)c(C)c3)n2)C1=O [Example 60]	−3.45
COc1cc(Oc2cc(N3C(=O)NC4(CCOCC4)C3=O)ccn2)ccc1C [Example 32]	−2.06
COc1cc(Oc2cncc(N3C(=O)NC(C)(C)C3=O)c2)ccc1C [Example 39]	−2.77

Q: Give a short answer stating reported Kv3.1 Activity at 10 μM Voltage Shift (mV) for CC[C@H]1NC(=O)N(c2cccc(Oc3cccc(OC)c3)n2)C1=O [Example 55] .
Ans: −1.41

###

Target: hKv3.1 (Homo sapiens)
Construct: expressed in transfected cells
Assay: Automated patch clamp (Patchliner) whole-cell electrophysiology, Kv3.1
Format: cell-based
Conditions: 10 μM compound; % potentiation of peak current at −10 mV voltage step vs vehicle; CHO-K1 cells stably expressing hKv3.1
Experimental: hKv3.1, hKv3.2, hKv3.3, and hKv3.4 were stably expressed in CHO-K1 (Chinese hamster ovary) cells and kept under constant antibiotic selection. […] The recordings were analysed and selected using peak current amplitude (>100 pA at the −10 mV voltage step) in the absence of compound to eliminate unsuitable cells from analysis. Peak current amplitude was measured and recorded for each voltage step and data was normalised to the maximum current at +60 mV. […]
measured.metric: Kv3.1 Activity at 10 μM Potentiation (%)

molecule	Kv3.1 Activity at 10 μM Potentiation (%)
CC[C@H]1NC(=O)N(c2cccc(Oc3ccc(C)c(OC)c3)n2)C1=O [Example 48]	62%
CC[C@H]1NC(=O)N(c2cccc(Oc3ccc(OC)c(C)c3)n2)C1=O [Example 51]	7%
COc1cc(Oc2cc(N3C(=O)NC4(CCC4)C3=O)ccn2)ccc1C [Example 34]	27%
COc1cc(Oc2cc(N3C(=O)NC4(CCOCC4)C3=O)ccn2)ccc1C [Example 32]	19%
COc1cc(Oc2nccc(N3C(=O)NC4(CCCCC4)C3=O)c2F)ccc1C [Example 91]	150%

// next item, Kv3.1 Activity at 10 μM Potentiation (%) requested
Q: Give a short answer stating reported Kv3.1 Activity at 10 μM Potentiation (%) for CC[C@@]1(C)NC(=O)N(c2ccnc(Oc3ccc(C)c(F)c3)c2)C1=O [Example 12] .
Ans: 6%

###

molecular target: hKv3.2 (Homo sapiens); construct: expressed in transfected cells; assay: Automated patch clamp (Patchliner) whole-cell electrophysiology, Kv3.2; format: cell-based; conditions: 10 μM compound; voltage shift of the IV curve at V1/2; CHO-K1 cells stably expressing hKv3.2
Sequence (Q96PR1 whole entry): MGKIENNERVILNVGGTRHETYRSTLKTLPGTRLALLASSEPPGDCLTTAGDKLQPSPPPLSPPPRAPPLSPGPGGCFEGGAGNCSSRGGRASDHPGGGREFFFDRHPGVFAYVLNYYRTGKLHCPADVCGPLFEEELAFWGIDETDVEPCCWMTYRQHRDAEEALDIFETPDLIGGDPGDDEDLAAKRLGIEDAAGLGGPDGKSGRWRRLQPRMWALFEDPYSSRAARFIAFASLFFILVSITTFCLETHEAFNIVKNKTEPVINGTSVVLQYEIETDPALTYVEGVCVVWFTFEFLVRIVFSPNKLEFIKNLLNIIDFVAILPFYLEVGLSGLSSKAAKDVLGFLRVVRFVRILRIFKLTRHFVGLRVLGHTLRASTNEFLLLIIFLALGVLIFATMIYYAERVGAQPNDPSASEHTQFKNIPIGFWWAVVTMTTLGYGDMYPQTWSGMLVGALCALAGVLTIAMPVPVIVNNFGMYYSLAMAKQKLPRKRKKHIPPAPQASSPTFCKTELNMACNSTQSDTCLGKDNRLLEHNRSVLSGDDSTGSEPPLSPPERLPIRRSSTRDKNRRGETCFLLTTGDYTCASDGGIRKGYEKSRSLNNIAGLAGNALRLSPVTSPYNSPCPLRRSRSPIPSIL
Reported Kv3.2 Activity at 10 μM Voltage Shift (mV) values for the following compounds.
Number in mV, nothing else.

Q: // fetch Kv3.2 Activity at 10 μM Voltage Shift (mV); item: CC[C@H]1NC(=O)N(c2cc(Oc3ccc(C)c(OC)c3)ccn2)C1=O ; system: hKv3.2 (Homo sapiens)
Ans: −3.77

Q: // fetch Kv3.2 Activity at 10 μM Voltage Shift (mV); item: O=C1NC2(CCCCC2)C(=O)N1c1ccnc(Oc2ccc3c(c2)OCO3)c1 ; system: hKv3.2 (Homo sapiens)
Ans: −3.73

Q: // fetch Kv3.2 Activity at 10 μM Voltage Shift (mV); item: O=C1NC2(CCCC2)C(=O)N1c1ccnc(Oc2ccc3c(c2)OC(F)(F)O3)c1F ; system: hKv3.2 (Homo sapiens)
Ans: −5.37

###

target: hKv3.1 (Homo sapiens); construct: expressed in transfected cells; test: Automated patch clamp (Patchliner) whole-cell electrophysiology, Kv3.1; type: cell-based; conditions: 10 μM compound; voltage shift of the IV curve at V1/2; CHO-K1 cells stably expressing hKv3.1
Threshold check on Kv3.1 Activity at 10 μM Voltage Shift (mV): at or above -3 mV gives y, strictly below gives n.

Q: API: above_or_equal(metric=Kv3.1 Activity at 10 μM Voltage Shift (mV), cutoff=-3 mV) for item CC[C@@]1(C)NC(=O)N(c2cccc(Oc3ccc(Cl)c(OC)c3)n2)C1=O
Ans: n

Q: API: above_or_equal(metric=Kv3.1 Activity at 10 μM Voltage Shift (mV), cutoff=-3 mV) for item O=C1NC2(CCCC2)C(=O)N1c1ccnc(Oc2ccc3c(c2)OC(F)(F)O3)c1F
Ans: n

Q: API: above_or_equal(metric=Kv3.1 Activity at 10 μM Voltage Shift (mV), cutoff=-3 mV) for item CC[C@]1(C)NC(=O)N(c2cccc(Oc3ccc(C)c(OC)c3)n2)C1=O
Ans: n

Q: API: above_or_equal(metric=Kv3.1 Activity at 10 μM Voltage Shift (mV), cutoff=-3 mV) for item CC[C@@]1(C)NC(=O)N(c2ccnc(Oc3ccc(C)c(C)c3)c2)C1=O
Ans: n

Q: API: above_or_equal(metric=Kv3.1 Activity at 10 μM Voltage Shift (mV), cutoff=-3 mV) for item CC[C@H]1NC(=O)N(c2cccc(Oc3cccc(C)c3OC)n2)C1=O
Ans: y

Q: API: above_or_equal(metric=Kv3.1 Activity at 10 μM Voltage Shift (mV), cutoff=-3 mV) for item CC[C@H]1NC(=O)N(c2ccnc(Oc3ccc(C)c(OC)c3)c2)C1=O
Ans: y
